# credit: patent US20260125346A1

system: PI3Kα (p110[H1047R]/p85) kinase (Homo sapiens, UniProt P42336, H1047R)
Sequence (P42336 whole entry H1047R): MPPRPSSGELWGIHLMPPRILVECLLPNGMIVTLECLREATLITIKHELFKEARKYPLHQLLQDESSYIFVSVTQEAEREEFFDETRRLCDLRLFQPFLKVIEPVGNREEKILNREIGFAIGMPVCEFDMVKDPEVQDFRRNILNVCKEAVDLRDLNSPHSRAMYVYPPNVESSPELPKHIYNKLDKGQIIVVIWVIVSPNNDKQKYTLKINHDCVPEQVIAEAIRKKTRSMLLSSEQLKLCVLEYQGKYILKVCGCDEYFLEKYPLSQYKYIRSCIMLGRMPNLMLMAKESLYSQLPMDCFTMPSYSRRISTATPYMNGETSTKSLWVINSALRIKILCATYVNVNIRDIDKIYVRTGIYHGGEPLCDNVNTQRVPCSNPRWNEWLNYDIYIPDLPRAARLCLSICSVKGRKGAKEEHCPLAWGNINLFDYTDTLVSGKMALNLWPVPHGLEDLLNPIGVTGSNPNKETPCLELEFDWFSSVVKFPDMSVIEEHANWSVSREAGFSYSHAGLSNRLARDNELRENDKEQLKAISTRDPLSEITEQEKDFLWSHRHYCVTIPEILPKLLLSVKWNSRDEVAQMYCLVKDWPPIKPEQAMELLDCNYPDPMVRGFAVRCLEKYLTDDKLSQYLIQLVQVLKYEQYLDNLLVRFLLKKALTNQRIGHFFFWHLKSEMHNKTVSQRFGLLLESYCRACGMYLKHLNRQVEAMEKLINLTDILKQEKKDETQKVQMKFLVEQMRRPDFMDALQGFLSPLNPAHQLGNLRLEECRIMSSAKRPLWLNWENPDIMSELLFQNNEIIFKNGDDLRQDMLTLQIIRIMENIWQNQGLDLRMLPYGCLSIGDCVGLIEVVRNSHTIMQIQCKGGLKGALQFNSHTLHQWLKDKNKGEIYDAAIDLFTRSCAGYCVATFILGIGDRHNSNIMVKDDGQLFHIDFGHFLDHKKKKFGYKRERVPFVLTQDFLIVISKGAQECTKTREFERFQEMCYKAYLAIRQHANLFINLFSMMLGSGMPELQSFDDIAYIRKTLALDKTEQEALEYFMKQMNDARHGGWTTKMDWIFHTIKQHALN
Sequence (P27986 whole entry partner): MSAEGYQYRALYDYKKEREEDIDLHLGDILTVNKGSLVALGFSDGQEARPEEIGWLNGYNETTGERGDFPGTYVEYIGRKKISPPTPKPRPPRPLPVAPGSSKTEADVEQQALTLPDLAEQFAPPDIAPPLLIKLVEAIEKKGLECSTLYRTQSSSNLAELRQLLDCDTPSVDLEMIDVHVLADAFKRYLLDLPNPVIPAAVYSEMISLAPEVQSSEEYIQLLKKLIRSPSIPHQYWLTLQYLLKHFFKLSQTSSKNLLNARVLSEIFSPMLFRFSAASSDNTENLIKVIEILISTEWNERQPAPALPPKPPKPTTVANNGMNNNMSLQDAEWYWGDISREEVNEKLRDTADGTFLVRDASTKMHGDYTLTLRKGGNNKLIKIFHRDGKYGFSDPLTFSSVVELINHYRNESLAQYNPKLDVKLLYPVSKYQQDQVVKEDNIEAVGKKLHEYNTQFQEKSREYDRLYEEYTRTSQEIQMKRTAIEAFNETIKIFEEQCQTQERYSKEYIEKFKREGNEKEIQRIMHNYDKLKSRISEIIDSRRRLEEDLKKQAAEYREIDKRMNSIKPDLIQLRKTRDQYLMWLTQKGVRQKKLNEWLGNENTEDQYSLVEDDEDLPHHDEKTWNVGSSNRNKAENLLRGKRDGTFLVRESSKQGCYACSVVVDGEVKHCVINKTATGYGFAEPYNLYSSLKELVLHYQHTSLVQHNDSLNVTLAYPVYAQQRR
measurement-description: PI3Kα (p110[H1047R]/p85) kinase ADP-Glo Assay
protocol-conditions: 25 uM ATP
pIC50: −log10 of the molar value.
// false (0) strictly below 6 in pIC50; true (1) otherwise

In [3]: df
Out[3]:
                                    molecule  label_class
 0  Cc1cc(C(C)Nc2ccncc2C(=O)O)c2cc(-c3ccc(F)cc3)n(C)c(=O)c2c1 (stereo not drawn)    false (0)
 1  Cc1cc(C(C)Nc2ccccc2C(=O)O)c2cc(-c3cccnc3)n(C)c(=O)c2c1 (stereo not drawn)     true (1)
 2  COc1ncc(-c2cc3c([C@H](C)Nc4ccccc4C(=O)O)cc(C)cc3c(=O)n2C)cc1F    false (0)
 3  Cc1cc(C(C)Nc2ccccc2C(=O)O)c2cc(C#Cc3ccn(C)n3)n(C)c(=O)c2c1 (stereo not drawn)     true (1)
 4  Cc1cc(C(C)Nc2ccccc2C(=O)O)c2cc(-c3ccc(F)cc3)n(C3COC3)c(=O)c2c1 (stereo not drawn)     true (1)
 5  Cc1cc(C(C)Nc2ccccc2C(=O)O)c2cc(-c3ccc4nc(C)sc4c3)n(C)c(=O)c2c1 (stereo not drawn)     true (1)
 6  Cc1cc(C(C)Nc2ccccc2C(=O)O)c2cc(C#CC3CCCCC3)n(C)c(=O)c2c1 (stereo not drawn)     true (1)
 7  Cc1cc(C(C)Nc2ccccc2C(=O)O)c2cc(-c3ccc4c(c3)C3CC3O4)n(C)c(=O)c2c1 (stereo not drawn)     true (1)
 8  Cc1cc([C@H](C)Nc2ccccc2C(=O)O)c2cc(-c3ccc(F)cc3)n(CC#N)c(=O)c2c1    false (0)
 9  Cc1cc(C(C)Nc2ccccc2C(=O)O)c2cc(C#CC3(O)CCCC3)n(C)c(=O)c2c1 (stereo not drawn)     true (1)
10  Cc1cc(C(C)Nc2ccccc2C(=O)O)c2cc(-c3ccccc3C(N)=O)n(C)c(=O)c2c1 (stereo not drawn)    false (0)
11  Cc1cc([C@@H](C)Nc2ccccc2C(=O)O)c2cc(-c3ccc(F)cc3)n(C)c(=O)c2c1     true (1)
12  Cc1cc(C(C)Nc2ccccc2C(=O)O)c2cc(-c3cccc(C(F)(F)F)c3)n(C)c(=O)c2c1 (stereo not drawn)     true (1)
13  Cc1cc(C(C)Nc2ccccc2C(=O)O)c2cc(-c3ccc(C4(O)CC4)cc3)n(C)c(=O)c2c1 (stereo not drawn)     true (1)
14  Cc1cc(C(C)Nc2ccccc2C(=O)O)c2cc(-c3ccc(F)cc3F)n(C)c(=O)c2c1 (stereo not drawn)     true (1)
15  Cc1cc(C(C)Nc2ccccc2C(=O)O)c2cc(-c3ccn(-c4ccccc4)c3)n(C)c(=O)c2c1 (stereo not drawn)     true (1)
16  Cc1cc(C(C)Nc2ccccc2C(=O)O)c2cc(-c3ccc(F)cc3)n(-c3nccs3)c(=O)c2c1 (stereo not drawn)     true (1)
17  CCn1c(-c2ccc(F)cc2)cc2c(C(C)Nc3ccc(Cl)nc3C(=O)O)cc(C)cc2c1=O (stereo not drawn)     true (1)
18  Cc1cc(C(C)Nc2ccccc2C(=O)O)c2cc(-c3ccccc3)n(C)c(=O)c2c1 (stereo not drawn)     true (1)
19  Cc1cc([C@H](C)Nc2ccccc2C(=O)O)c2cc(-c3ccc(-c4cnn(C)c4)cc3)n(C)c(=O)c2c1    false (0)
20  Cc1cc(C(C)Nc2ccccc2C(=O)O)c2cc(C3=CCN(c4ccccc4)CC3)n(C)c(=O)c2c1 (stereo not drawn)     true (1)

---

system: PI3Kα (p110/p85) kinase (wild type, "WT") (Homo sapiens, UniProt P42336)
Sequence (P42336 whole entry, one chain of several): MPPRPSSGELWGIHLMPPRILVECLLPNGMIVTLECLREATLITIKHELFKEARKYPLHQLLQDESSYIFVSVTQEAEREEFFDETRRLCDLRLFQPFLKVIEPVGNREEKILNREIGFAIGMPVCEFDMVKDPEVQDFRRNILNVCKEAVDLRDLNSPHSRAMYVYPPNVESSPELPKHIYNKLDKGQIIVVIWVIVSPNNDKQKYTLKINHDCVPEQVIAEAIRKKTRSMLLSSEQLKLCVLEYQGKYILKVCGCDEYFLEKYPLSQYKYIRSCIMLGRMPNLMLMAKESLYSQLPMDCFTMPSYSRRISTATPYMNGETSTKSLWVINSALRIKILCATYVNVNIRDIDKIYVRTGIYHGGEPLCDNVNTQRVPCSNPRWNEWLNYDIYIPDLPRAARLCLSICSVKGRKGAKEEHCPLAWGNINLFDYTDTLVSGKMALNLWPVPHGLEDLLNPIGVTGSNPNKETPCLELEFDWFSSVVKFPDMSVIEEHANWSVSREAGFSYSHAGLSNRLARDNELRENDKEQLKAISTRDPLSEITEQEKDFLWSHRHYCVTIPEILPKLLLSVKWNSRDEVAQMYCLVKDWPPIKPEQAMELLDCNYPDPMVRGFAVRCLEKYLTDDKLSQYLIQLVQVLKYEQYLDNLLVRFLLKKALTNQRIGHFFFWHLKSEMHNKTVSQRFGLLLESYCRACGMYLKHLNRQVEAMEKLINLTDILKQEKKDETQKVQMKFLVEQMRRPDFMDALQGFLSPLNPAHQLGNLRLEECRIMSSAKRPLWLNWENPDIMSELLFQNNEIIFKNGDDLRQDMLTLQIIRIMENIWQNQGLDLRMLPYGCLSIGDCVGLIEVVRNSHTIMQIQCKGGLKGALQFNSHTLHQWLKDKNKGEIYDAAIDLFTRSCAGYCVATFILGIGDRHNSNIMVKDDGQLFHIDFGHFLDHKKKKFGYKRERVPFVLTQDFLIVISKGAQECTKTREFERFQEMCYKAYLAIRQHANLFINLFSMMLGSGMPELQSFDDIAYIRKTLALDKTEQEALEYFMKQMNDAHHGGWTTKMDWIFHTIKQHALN
measurement-description: PI3Kα (p110/p85) kinase ADP-Glo Assay
protocol-conditions: 25 uM ATP
measurement-label: IC50 (µM)

>>> df
                                   molecule  scale_unit  observed
0  Cc1cc(C(C)Nc2ccccc2C(=O)O)c2cc(C3=CCN(c4ccccc4)C3)n(C)c(=O)c2c1 (centres unmarked)          µM      11.8
1  Cc1cc(C(C)Nc2ccccc2C(=O)O)c2cc(-c3cccc(C(C)(C)C#N)c3)n(C)c(=O)c2c1 (centres unmarked)          µM      5.28
2  Cc1cc(C(C)Nc2ccccc2C(=O)O)c2cc(C#CC3(O)CCCC3)n(C)c(=O)c2c1 (centres unmarked)          µM      6.84
3  Cc1cc(C(C)Nc2ccccc2C(=O)O)c2cc(-c3ccccc3C)n(C)c(=O)c2c1 (centres unmarked)          µM      22.4
4  Cc1cc(C(C)Nc2ccccc2C(=O)O)c2cc(-c3cnn(-c4ccc(C(N)=O)cn4)c3)n(C)c(=O)c2c1 (centres unmarked)          µM      3.67
5  Cc1cc(C(C)Nc2ccccc2C(=O)O)c2cc(-c3cccc(C#N)c3)n(C)c(=O)c2c1 (centres unmarked)          µM      9.85
6  COc1ncc(-c2cc3c([C@H](C)Nc4ccccc4C(=O)O)cc(C)cc3c(=O)n2C)cc1F          µM      24.1
7  Cc1cc(C(C)Nc2ccccc2C(=O)O)c2cc(-c3cnc(O)nc3)n(C)c(=O)c2c1 (centres unmarked)          µM      26.8

---

System: WT cell line SK-BR-3
measurement-description: Phospho-AKT (Ser473) Inhibition Assay (HTRF), SK-BR-3
Type: cell-based
protocol-conditions: Homo sapiens; SK-BR-3, 1 hour treatment; read-out: p-AKT Inhibition assay (S473) IC50 SK-BR-3
pIC50: −log10 of the molar value.
Quick list: pIC50 per entry.
measurement-label: pIC50

                                    compound  measurement_label  qualifying_sign  observed
 0  Cc1cc(C(C)Nc2ccccc2C(=O)O)c2cc(-c3ccc(N4CCC(C)(O)CC4)nc3)n(C)c(=O)c2c1 (stereo not drawn)              pIC50                <      5.00
 1  CCn1c(-c2ccc(F)cc2)cc2c(C(C)Nc3ccc(Cl)nc3C(=O)O)cc(C)cc2c1=O (stereo not drawn)              pIC50                =      5.73
 2  Cc1cc(C(C)Nc2ccccc2C(=O)O)c2cc(-c3ccn(-c4ccccc4)c3)n(C)c(=O)c2c1 (stereo not drawn)              pIC50                =      5.69
 3  CC#Cc1ccc(-c2cc3c(C(C)Nc4ccccc4C(=O)O)cc(C)cc3c(=O)n2C)cc1 (stereo not drawn)              pIC50                =      5.14
 4  Cc1cc(C(C)Nc2ccccc2C(=O)O)c2cc(-c3ccc(F)cc3)n(C3CCOCC3)c(=O)c2c1 (stereo not drawn)              pIC50                =      5.02
 5  Cc1cc(C(C)Nc2ccccc2C(=O)O)c2cc(-c3ccc(C4(O)CCOCC4)cc3)n(C)c(=O)c2c1 (stereo not drawn)              pIC50                <      5.00
 6  Cc1cc(C(C)Nc2ccccc2C(=O)O)c2cc(-c3nc4ccccc4s3)n(C)c(=O)c2c1 (stereo not drawn)              pIC50                =      6.10
 7  Cc1cc(C(C)Nc2ccccc2C(=O)O)c2cc(-c3ccc(F)cc3)n(CC#N)c(=O)c2c1 (stereo not drawn)              pIC50                =      5.32
 8  Cc1cc(C(C)Nc2cccnc2C(=O)O)c2cc(-c3ccc(F)cc3)n(C)c(=O)c2c1 (stereo not drawn)              pIC50                =      5.00
 9  Cc1cc(C(C)Nc2ccccc2C(=O)O)c2cc(-c3ccc(F)c(F)c3)n(C)c(=O)c2c1 (stereo not drawn)              pIC50                =      5.44
10  Cc1cc(C(C)Nc2ccccc2C(=O)O)c2cc(-c3ccc4c(c3)C(=O)N(C)C4)n(C)c(=O)c2c1 (stereo not drawn)              pIC50                <      5.00
11  CC(Nc1ccccc1C(=O)O)c1cccc2c(=O)n(C)c(-c3ccccc3)cc12 (stereo not drawn)              pIC50                <      5.00
12  Cc1cc([C@@H](C)Nc2ccccc2C(=O)O)c2cc(-c3cnc(C(C)(C)O)nc3)n(C)c(=O)c2c1              pIC50                <      5.00
13  Cc1cc(C(C)Nc2ccccc2C(=O)O)c2cc(-c3cnn(-c4cccc(C#N)c4)c3)n(C)c(=O)c2c1 (stereo not drawn)              pIC50                =      5.57
14  Cc1cc(C(C)Nc2ccccc2C(=O)O)c2cc(-c3ccc(F)cc3)n(C)c(=O)c2c1 (stereo not drawn)              pIC50                =      5.60
